Would you kindly list relative IC50 ratio for each of these compounds?
Biological target: Angiotensin-I Converting Enzyme from rabbit lung (Oryctolagus cuniculus, UniProt P12822)
Construct: Angiotensin-I Converting Enzyme from rabbit lung; purchased Sigma (Barcelona, Spain); host or cells: rabbit lung tissue
Sequence (P12822 34-1310): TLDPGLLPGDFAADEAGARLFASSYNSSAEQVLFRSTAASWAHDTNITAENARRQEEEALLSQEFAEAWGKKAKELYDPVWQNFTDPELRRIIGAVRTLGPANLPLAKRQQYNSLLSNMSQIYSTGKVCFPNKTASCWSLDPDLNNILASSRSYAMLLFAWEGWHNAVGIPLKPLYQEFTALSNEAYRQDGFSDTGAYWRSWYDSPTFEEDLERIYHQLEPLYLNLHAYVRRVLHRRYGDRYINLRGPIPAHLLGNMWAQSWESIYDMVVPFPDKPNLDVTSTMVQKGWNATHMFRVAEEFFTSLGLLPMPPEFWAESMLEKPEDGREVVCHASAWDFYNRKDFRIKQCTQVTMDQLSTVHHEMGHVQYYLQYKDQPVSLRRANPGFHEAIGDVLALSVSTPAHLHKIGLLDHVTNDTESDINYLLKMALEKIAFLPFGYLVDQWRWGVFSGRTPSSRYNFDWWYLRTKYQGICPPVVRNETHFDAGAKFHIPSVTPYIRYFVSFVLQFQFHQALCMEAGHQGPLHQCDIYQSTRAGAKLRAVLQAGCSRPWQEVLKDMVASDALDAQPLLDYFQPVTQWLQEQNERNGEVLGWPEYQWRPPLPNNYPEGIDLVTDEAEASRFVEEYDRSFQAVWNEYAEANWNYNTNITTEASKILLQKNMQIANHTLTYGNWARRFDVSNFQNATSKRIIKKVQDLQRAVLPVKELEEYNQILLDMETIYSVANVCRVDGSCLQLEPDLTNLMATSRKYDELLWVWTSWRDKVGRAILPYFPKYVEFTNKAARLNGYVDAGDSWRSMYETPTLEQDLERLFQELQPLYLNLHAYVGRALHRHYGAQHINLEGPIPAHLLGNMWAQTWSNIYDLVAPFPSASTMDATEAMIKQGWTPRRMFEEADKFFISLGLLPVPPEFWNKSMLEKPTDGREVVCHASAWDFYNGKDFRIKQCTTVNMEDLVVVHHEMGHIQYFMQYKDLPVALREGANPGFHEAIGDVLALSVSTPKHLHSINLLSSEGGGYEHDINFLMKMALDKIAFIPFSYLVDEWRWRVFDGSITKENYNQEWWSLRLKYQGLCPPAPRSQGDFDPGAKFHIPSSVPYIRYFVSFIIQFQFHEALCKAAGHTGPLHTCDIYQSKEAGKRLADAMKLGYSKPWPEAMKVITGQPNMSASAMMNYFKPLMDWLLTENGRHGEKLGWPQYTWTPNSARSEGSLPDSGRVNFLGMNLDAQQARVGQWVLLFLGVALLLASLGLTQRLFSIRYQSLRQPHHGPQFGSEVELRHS
Assay: ACE-inhibitory (ACEI) activity, fluorimetric assay with o-Abz-Gly-p-Phe(NO2)-Pro substrate
Type: biochemical
Details: IC50 relative to luteolin (1)
Procedure: o-aminobenzoylglycyl-p-nitro-phenylalanylproline (o-ABz-Gly-Phe(NO2)-Pro) was purchased from Bachem Feinchemikalien (Bubendorf, Switzerland). […] ACEI activity was measured by a fluorimetric assay following the method of Sentandreu and Toldrá [43] with some modifications. […] Fluorescence was measured after 30 min in 96-well microplates (Thermo Scientific, Rochester, NY) using a multiscan microplate fluorimeter (Biotek. FL×800). […]
Number only, please.

Qu. Fill blank: measured relative IC50 ratio of the compound O=c1c(O)c(-c2ccc(O)cc2)oc2cc(O)cc(O)c12 is ____.
Ans. 7.74

Qu. Fill blank: measured relative IC50 ratio of the compound O=c1cc(-c2ccc(O)c(O)c2)oc2cc(O)cc(O)c12 is ____.
Ans. 1

Qu. Fill blank: measured relative IC50 ratio of the compound C[C@@H]1O[C@@H](OC[C@H]2O[C@@H](Oc3c(-c4ccc(O)c(O)c4)oc4cc(O)cc(O)c4c3=O)[C@H](O)[C@@H](O)[C@@H]2O)[C@H](O)[C@H](O)[C@H]1O [Rutin, quercetin 3-O-glycoside] is ____.
Ans. 2.78

Qu. Fill blank: measured relative IC50 ratio of the compound O=c1cc(-c2ccc(O)cc2)oc2cc(O)cc(O)c12.[K] is ____.
Ans. 8.52

Qu. Fill blank: measured relative IC50 ratio of the compound C[C@@H]1O[C@@H](O[C@H]2[C@H](Oc3cc(O)c4c(=O)cc(-c5ccc(O)cc5)oc4c3)O[C@H](CO)[C@@H](O)[C@@H]2O)[C@H](O)[C@H](O)[C@H]1O [Rhoifolin, apigenin 7-O-glycoside] is ____.
Ans. 7.96
